These measurements were taken from paper PMC9781003.

Could you please report measured pKi for the items listed next?
- SYSTEM: DabiOBP5 (Dioryctria abietella, UniProt A0A8E6HS34)
- Sequence (A0A8E6HS34 19-139): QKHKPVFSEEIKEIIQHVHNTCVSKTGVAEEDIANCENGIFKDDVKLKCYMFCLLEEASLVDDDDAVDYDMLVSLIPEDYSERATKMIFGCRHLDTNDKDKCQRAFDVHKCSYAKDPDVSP
- TEST_SUMMARY: Competitive fluorescence binding assay with 1-NPN probe, recombinant DabiOBP5
- CONDITION_PARAMETERS: competitive displacement of 1-NPN; three replicates; mean ± SE; read-out: OBP5 Ki (dissociation constant)
Kindly note that pKi refers to -log10 of the concentration in mol/L and answer with the value alone.

Please report the recorded pKi for CC(=O)/C=C/C1=C(C)CCCC1(C)C .
5.04

Need pKi of CCCCC/C=C\C=C\C(=O)OCC [Ethyl-(2E,4Z)-decadienoate] , thanks.
5.25

====

- System: DabiOBP14
- Format: binding, Dioryctria abietella
- CONDITION_PARAMETERS: ligand at 20 μM; DabiOBP14/1-NPN each 2 μM; Tris-HCl pH 7.4; NB = no binding
PROPERTY_LABEL: OBP14 F.D. (%) fluorescence displacement percent
Answer with a number only, understood to be in %.

Entry under review: CC(C)=CCO [3-Methyl-2-buten-1-ol] . Reported OBP14 F.D. (%) fluorescence displacement percent?
34.58

Name the reported OBP14 F.D. (%) fluorescence displacement percent value associated with the compound CC1=CC[C@H](C(C)C)C=C1 [α-Phellandrene]
36.07

Value lookup for OBP14 F.D. (%) fluorescence displacement percent; key = CCC/C=C\C=O [Z2-Hexenal]
33.09

What value of OBP14 F.D. (%) fluorescence displacement percent has been reported for the following compound? CC1=C(C=O)C(C)(C)CCC1 [β-Cyclocitral]
32.77

Quick check: OBP14 F.D. (%) fluorescence displacement percent of C=C(C)[C@H]1Cc2c(ccc3c2O[C@@H]2COc4cc(OC)c(OC)cc4[C@@H]2C3=O)O1 [Rotenone] ?
58.66

Suppose we examine the compound CC(C)=CCC/C(C)=C/CO [Geraniol] ; what OBP14 F.D. (%) fluorescence displacement percent value has been reported?
28.67

Need OBP14 F.D. (%) fluorescence displacement percent of CCCCCCCCCCCCCCCCCC [Octadecane] , thanks.
23.94

Can you look up the measured OBP14 F.D. (%) fluorescence displacement percent of C=CC(C)=CCC=C(C)C [Ocimene] for me?
33.18

Sample CCOC(=O)c1ccccc1 [Ethyl benzoate] — what was its OBP14 F.D. (%) fluorescence displacement percent?
30.02

# query: OBP14 F.D. (%) fluorescence displacement percent of entry CC(=O)/C=C/C1=C(C)CCCC1(C)C [β-Ionone]
62.86

Tell me the measured OBP14 F.D. (%) fluorescence displacement percent of CCCCCCO [1-Hexanol] , please.
40.27

# input compound: CC(=O)OC/C=C(\C)CCC=C(C)C [Geranyl acetate] ; wanted: its OBP14 F.D. (%) fluorescence displacement percent
27.39

====

- SYSTEM: DabiOBP14
- Assay type: binding, Dioryctria abietella
- CONDITION_PARAMETERS: competitive displacement of 1-NPN; three replicates; mean ± SE; listed as β-ionone; read-out: OBP14 Ki (dissociation constant)
PROPERTY_LABEL: Ki

# get_value(readout= Ki, system= DabiOBP14) for CC(=O)/C=C/C1=C(C)CCCC1(C)C
< 13 µM

====

- SYSTEM: DabiOBP14
- CONDITION_PARAMETERS: 2 μM protein, 2–16 μM 1-NPN, 20 mM Tris-HCl pH 7.4; read-out: K1-NPN binding constant of DabiOBP14 and 1-NPN
PROPERTY_LABEL: Kd (µM)
Give the number; µM is assumed, so skip it.

// lookup Kd for c1ccc(Nc2cccc3ccccc23)cc1
4.5
